Overview of recorded TGI for various compounds
System: M14 melanoma
protocol: NCI tumour cell line growth inhibition, 48 h

- compound: "CC(C)NC1(C(N)=O)CCN(Cc2ccccc2)CC1"
  TGI: "> 100 µM"
- compound: "CN(C)c1nc2n(CCO)ccnc-2c(=O)n1"
  TGI: "> 100 µM"
- compound: "Cc1ccc(I)cc1N=C=S"
  TGI: "38.7 µM"

input: Recorded TGI of CC(=O)/C(=C\c1ccccc1)C(=O)Nc1ccccc1 , please.
output: > 100 µM

input: Recorded TGI of O=C(OC1C(Oc2ccccc2COC(=O)C2(O)C=CCCC2=O)OC(CO)C(O)C1O)c1ccccc1 (stereo unspecified) , please.
output: > 100 µM

input: Recorded TGI of c1ccc(P2c3ccccc3Nc3ccccc32)cc1 , please.
output: > 100 µM

input: Recorded TGI of O=C([CH-]C(=O)C(F)(F)F)c1ccccc1.O=C([CH-]C(=O)C(F)(F)F)c1ccccc1.[O]=[U+2]=[O] , please.
output: 88.9 µM

input: Recorded TGI of N#CC(C(=O)C(N)=O)c1ccccc1Cl (stereo unspecified) , please.
output: > 100 µM

Taken from PubChem BioAssay (NCI).
